# subjectOfTest: human CMV DNA polymerase UL54 (Human cytomegalovirus (strain AD169) (HHV-5) (Human herpesvirus 5), UniProt P08546)
# procedureSummary: CMV polymerase biochemical assay (molecular beacon-based)
Assign labels as follows, please: condition met for IC50 below 10 nM; condition not met for IC50 equal to or exceeding 10 nM.

Would you kindly verify if IC50 of "CS(=O)(=O)C1(CN2CCn3c(ccc(C(=O)NCc4ccc(Cl)cc4)c3=O)C2=O)CCC1" is strictly less than 10 nM?
condition not met

Does "N#Cc1ccc(CNC(=O)c2ccc3n(c2=O)CCN(CC2(S(=O)(=O)C4(CO)CC4)CC2)C3=O)cc1F" have IC50 strictly under 10 nM?
condition met

Strictly below 10 nM in IC50? CC(CCO)S(=O)(=O)C1(CN2CCn3c(ccc(C(=O)NCc4ccc(C#N)cc4)c3=O)C2=O)CC1 (stereo not shown)
condition met

State whether 10 nM exceeds IC50 recorded for "O=C(NCc1ccc(Cl)cc1)c1ccc2n(c1=O)CCN(CC1(N3CCCC3=O)CC1)C2=O" .
condition not met

Please determine if N#Cc1ccc(CNC(=O)c2ccc3n(c2=O)CCN(CC2CCCS2(=O)=O)C3=O)cc1F (stereo not shown) is below 10 nM in terms of IC50.
condition not met

Item C[S@@](=N)(=O)C1(CN2CCn3c(ccc(C(=O)NCc4ccc(Cl)cc4)c3=O)C2=O)CC1 (single isomer, unassigned) : IC50 beneath 10 nM, strictly?
condition not met

A record lists "CS(=O)(=O)C1(CN2CCn3c(ccc(C(=O)NCc4ccc(C#N)cc4F)c3=O)C2=O)CC1" . Is its IC50 below 10 nM?
condition not met

###

# subjectOfTest: human HSV DNA polymerase UL30 (Human herpesvirus 1 (strain 17) (HHV-1) (Human herpes simplex virus 1), UniProt P04293)
# procedureSummary: HSV polymerase biochemical assay (molecular beacon-based)
Please provide measured pIC50 for the entries that follow.
Convention used: pIC50 is expressed as -log10 of the molar concentration.

// Input: "CN(CCN1CCn2c(c(CF)cc(C(=O)NCc3ccc(Cl)cc3)c2=O)C1=O)S(C)(=O)=O" . Output its pIC50 only.
5.37

Please supply the value of reported pIC50 for the item "O=C(NCc1ccc(Cl)cc1)c1cc(C(F)(F)F)c2n(c1=O)CCN(CCN1CCCS1(=O)=O)C2=O"
5.30

Check the records and state pIC50 for "O=C(NCc1ccc(F)cc1)c1ccc2n(c1=O)CCN(CC1(S(=O)(=O)C3CC3)CC1)C2=O"
7.10

Tell me pIC50 reported for "CNS(=O)(=O)C1(CN2CCn3c(ccc(C(=O)NCc4ccc(C#N)cc4)c3=O)C2=O)CC1"
7.11

Provide only the value of recorded pIC50 for "N#Cc1ccc(CNC(=O)c2ccc3n(c2=O)CCN(CC2(S(=O)(=O)C4CNC4)CC2)C3=O)cc1"
6.79

Give me measured pIC50, please, for this compound: "O=C(NCc1ccc(Cl)cc1)c1ccc2n(c1=O)CCN(CCN1CCCCC1=O)C2=O"
5.21

Look up and report measured pIC50 for this entry: "CC1(CS(=O)(=O)C2(CN3CCn4c(ccc(C(=O)NCc5ccc(C#N)c(F)c5)c4=O)C3=O)CC2)COC1"
6.77

Write down pIC50 measured for item C[S@+]([O-])C1(CN2CCn3c(ccc(C(=O)NCc4ccc(Cl)cc4)c3=O)C2=O)CC1 (single isomer, unassigned)
4.88

Please report pIC50 for the following compound: "N#Cc1ccc(CNC(=O)c2ccc3n(c2=O)CCN(CC2(S(=O)(=O)C4CCCC4)CC2)C3=O)cc1F"
7.45

For the compound "CN(CCN1CCn2c(c(Br)cc(C(=O)NCc3ccc(Cl)cc3)c2=O)C1=O)S(C)(=O)=O" , report pIC50.
5.30

Return pIC50 (reported value) for this compound: N#Cc1ccc(CNC(=O)c2ccc3n(c2=O)CCN(CC2(S(=O)(=O)C4CCNC4)CC2)C3=O)cc1F (stereo not drawn)
6.82

Provide one value: measured pIC50 of "Cc1nc(-c2cc(C(=O)NCc3ccc(Cl)cc3)c(=O)n3c2C(=O)N(CCS(C)(=O)=O)CC3)no1"
5.25

Kindly indicate its recorded pIC50. Item: "Cc1cc(C(=O)NCc2ccc(Cl)cc2)c(=O)n2c1C(=O)N(CCCS(C)(=O)=O)CC2"
5.78

Let me know recorded pIC50 for "O=C(NCc1ccc(Cl)nc1)c1ccc2n(c1=O)CCN(CC1(S(=O)(=O)C3(CO)CC3)CC1)C2=O" , thanks.
7.14

Please give measured pIC50 of the following entry: "O=C(NCc1ccc(Cl)cc1)c1ccc2n(c1=O)CCN(CC1(S(=O)(=O)C3(F)CC3)CC1)C2=O"
7.23
